Tyrosine-protein kinase JAK1 (Homo sapiens, UniProt P23458): recorded IC50 for assorted compounds
Sequence (P23458 whole entry): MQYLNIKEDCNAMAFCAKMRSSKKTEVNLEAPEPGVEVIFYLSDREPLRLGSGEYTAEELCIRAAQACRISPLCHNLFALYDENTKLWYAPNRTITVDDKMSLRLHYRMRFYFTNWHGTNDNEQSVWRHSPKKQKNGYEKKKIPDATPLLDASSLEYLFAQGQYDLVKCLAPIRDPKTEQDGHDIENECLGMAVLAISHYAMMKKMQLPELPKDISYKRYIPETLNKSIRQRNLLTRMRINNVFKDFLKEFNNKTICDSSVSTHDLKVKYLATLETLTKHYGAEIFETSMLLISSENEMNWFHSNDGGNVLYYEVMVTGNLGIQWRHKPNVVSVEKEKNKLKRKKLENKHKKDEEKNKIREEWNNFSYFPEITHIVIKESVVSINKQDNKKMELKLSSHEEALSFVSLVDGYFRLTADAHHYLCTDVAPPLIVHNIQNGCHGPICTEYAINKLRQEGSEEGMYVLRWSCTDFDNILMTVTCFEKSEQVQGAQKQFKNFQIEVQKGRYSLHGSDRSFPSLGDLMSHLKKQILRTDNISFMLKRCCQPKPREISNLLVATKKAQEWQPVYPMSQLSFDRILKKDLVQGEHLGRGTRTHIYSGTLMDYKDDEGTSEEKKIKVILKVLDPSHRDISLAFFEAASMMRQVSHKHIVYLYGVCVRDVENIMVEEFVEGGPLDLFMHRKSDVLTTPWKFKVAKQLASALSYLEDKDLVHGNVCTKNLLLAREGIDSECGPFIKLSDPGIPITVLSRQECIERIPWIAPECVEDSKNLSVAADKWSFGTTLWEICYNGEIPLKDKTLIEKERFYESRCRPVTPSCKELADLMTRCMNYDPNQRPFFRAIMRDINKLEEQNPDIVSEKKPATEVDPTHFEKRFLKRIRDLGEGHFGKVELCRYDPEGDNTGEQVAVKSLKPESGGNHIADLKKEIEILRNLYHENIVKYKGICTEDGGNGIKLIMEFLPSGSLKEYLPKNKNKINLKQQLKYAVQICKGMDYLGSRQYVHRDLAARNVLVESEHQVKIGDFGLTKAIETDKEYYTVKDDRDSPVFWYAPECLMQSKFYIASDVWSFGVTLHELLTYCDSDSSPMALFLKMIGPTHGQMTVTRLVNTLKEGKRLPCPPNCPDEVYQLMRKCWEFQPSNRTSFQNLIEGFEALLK

Cn1c(-c2cn([C@@H]3[C@@H](O)[C@H](O)[C@@H](CO)O[C@H]3O)nn2)nc(-c2ccc(F)cc2)c1-c1ccncc1: > 100 µM
CSc1nccc(-c2c(-c3ccc(F)cc3)nc3nc(-c4cn(CCP(=O)(O)O)nn4)ccn23)n1: > 100 µM
C#Cc1ccn2c(-c3ccnc(SC)n3)c(-c3ccc(F)cc3)nc2n1: > 100 µM
O=c1cc(-c2[nH]c(-c3ccc(-c4cn(CCP(=O)(O)O)nn4)cc3)nc2-c2ccc(F)cc2)cc[nH]1: > 100 µM
O=C(O)c1cc(-c2nc(-c3ccc(F)cc3)c(-c3cc[nH]c(=O)c3)[nH]2)ccc1O: > 100 µM

State its IC50 on Tyrosine-protein kinase JAK1 (Homo sapiens, UniProt P23458): `O=C(O)c1ccc(-c2nc(-c3ccc(F)cc3)c(-c3cc[nH]c(=O)c3)[nH]2)cc1`
14.1 µM

Next entry: `Cn1c(-c2cn(CCP(=O)(O)O)nn2)nc(-c2ccc(F)cc2)c1-c1ccncc1`
> 100 µM

And then `O=c1cc(-c2[nH]c(-c3ccc(-c4cn(CCO)nn4)cc3)nc2-c2ccc(F)cc2)cc[nH]1` , what is it?
> 10 µM

How about `CCOP(=O)(CCn1cc(-c2ccc(-c3nc(-c4ccc(F)cc4)c(-c4cc[nH]c(=O)c4)[nH]3)cc2)nn1)OCC` ?
23.9 µM

`O=c1cc(-c2[nH]c(-c3ccc(O)cc3)nc2-c2ccc(F)cc2)cc[nH]1` ?
54.6 µM

One more compound: `Cn1c(-c2cn(-c3ccc(C(=O)O)cc3)nn2)nc(-c2ccc(F)cc2)c1-c1ccncc1`
> 100 µM

Further, for `CCOP(=O)(CCn1cc(-c2nc(-c3ccc(F)cc3)c(-c3ccncc3)n2C)nn1)OCC` ?
> 100 µM

Try `CCOC(=O)Cn1cc(-c2ccc(-c3nc(-c4ccc(F)cc4)c(-c4cc[nH]c(=O)c4)[nH]3)cc2)nn1` next.
80.1 µM

Same for `C#Cc1ccc(-c2nc(-c3ccc(F)cc3)c(-c3cc[nH]c(=O)c3)[nH]2)cc1`
> 10 µM

---

Target: Tyrosine-protein kinase JAK2 (Homo sapiens, UniProt O60674)
Sequence (O60674 whole entry): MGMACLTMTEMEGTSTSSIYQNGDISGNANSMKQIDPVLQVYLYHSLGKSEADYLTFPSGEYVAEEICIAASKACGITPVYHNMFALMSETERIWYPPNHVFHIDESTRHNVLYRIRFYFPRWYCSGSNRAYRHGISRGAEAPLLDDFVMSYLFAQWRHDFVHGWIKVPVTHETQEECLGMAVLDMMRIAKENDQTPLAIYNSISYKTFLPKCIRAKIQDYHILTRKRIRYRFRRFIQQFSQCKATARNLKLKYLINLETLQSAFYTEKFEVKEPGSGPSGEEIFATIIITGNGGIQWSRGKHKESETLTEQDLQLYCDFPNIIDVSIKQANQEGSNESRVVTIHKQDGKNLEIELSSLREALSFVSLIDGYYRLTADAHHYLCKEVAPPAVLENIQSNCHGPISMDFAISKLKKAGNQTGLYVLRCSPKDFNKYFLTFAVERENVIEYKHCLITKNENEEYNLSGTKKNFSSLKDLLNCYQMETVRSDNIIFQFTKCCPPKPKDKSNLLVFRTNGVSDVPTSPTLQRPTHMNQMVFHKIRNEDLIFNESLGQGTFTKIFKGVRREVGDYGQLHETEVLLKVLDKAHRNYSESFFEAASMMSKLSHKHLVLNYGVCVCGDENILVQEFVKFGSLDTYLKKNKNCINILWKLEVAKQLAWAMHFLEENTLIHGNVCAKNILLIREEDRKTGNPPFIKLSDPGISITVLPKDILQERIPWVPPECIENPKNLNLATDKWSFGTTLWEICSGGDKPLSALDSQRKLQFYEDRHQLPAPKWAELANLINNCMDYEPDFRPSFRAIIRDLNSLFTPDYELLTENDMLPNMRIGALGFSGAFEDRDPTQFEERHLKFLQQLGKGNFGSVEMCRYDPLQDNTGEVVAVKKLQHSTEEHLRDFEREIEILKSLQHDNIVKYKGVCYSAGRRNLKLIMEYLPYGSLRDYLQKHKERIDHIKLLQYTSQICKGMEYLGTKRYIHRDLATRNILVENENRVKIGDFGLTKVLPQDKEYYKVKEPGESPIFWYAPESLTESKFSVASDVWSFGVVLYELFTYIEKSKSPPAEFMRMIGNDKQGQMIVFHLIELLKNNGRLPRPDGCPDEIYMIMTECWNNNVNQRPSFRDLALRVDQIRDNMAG
Parameter: IC50 (µM)

O=c1cc(-c2[nH]c(-c3ccc(-c4nnn[nH]4)cc3)nc2-c2ccc(F)cc2)cc[nH]1: 0.061

(a) C#Cc1ccc(-c2nc(-c3ccc(F)cc3)c(-c3cc[nH]c(=O)c3)[nH]2)cc1
(b) O=c1cc(-c2[nH]c(C3CCNCC3)nc2-c2ccc(F)cc2)cc[nH]1
Hi there! Just curious which has the higher IC50 between a and b . Write the label of whichever entry you select.
a
(a: 14.3 µM, b: 6.62 µM)

---

A collection of molecules and their measured IC50
Molecular target: UniProtKB P52333
Sequence (P52333 whole entry): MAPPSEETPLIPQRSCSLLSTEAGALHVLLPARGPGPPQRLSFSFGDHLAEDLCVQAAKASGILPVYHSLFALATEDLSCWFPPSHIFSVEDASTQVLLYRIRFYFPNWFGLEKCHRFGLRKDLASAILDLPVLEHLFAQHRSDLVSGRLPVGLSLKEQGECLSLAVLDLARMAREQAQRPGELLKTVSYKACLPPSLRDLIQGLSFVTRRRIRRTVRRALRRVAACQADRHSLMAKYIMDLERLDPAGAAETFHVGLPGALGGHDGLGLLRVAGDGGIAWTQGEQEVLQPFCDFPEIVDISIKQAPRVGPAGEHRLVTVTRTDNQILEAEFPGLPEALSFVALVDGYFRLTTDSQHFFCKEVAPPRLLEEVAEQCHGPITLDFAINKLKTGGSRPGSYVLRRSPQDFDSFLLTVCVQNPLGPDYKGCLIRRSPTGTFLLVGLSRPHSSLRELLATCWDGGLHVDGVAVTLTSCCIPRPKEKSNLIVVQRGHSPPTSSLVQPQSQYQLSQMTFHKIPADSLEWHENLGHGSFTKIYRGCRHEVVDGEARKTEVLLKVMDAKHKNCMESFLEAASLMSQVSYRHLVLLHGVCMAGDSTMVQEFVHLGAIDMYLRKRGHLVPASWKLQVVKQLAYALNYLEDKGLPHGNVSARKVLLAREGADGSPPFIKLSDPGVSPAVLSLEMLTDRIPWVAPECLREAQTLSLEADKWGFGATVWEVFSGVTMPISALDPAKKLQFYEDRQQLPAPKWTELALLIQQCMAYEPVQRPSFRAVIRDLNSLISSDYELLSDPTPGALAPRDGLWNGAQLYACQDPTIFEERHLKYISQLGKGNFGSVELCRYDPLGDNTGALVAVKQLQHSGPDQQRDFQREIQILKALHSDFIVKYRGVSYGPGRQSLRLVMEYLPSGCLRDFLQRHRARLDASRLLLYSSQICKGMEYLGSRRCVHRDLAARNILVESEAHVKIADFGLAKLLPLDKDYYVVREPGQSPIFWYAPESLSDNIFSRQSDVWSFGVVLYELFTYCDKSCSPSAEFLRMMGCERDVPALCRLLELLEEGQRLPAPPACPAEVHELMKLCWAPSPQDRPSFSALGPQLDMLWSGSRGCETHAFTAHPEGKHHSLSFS

Cn1c(-c2cn(CCO)nn2)nc(-c2ccc(F)cc2)c1-c1ccncc1: > 100 µM
O=c1cc(-c2[nH]c(-c3ccc(-c4cn(CCP(=O)(O)O)nn4)cc3)nc2-c2ccc(F)cc2)cc[nH]1: > 100 µM
CCOP(=O)(CCn1cc(-c2ccn3c(-c4ccnc(SC)n4)c(-c4ccc(F)cc4)nc3n2)nn1)OCC: > 100 µM
C#Cc1ccn2c(-c3ccnc(SC)n3)c(-c3ccc(F)cc3)nc2n1: > 100 µM

So what does the record say about IC50 for `C#Cc1ccc(-c2nc(-c3ccc(F)cc3)c(-c3ccnc(SC)n3)[nH]2)cc1` ?
> 100 µM

What would you report for `CSc1nccc(-c2c(-c3ccc(F)cc3)nc3nc(-c4cn(CCP(=O)(O)O)nn4)ccn23)n1` ?
> 100 µM

Now the same for `O=c1cc(-c2[nH]c(-c3ccc(O)cc3)nc2-c2ccc(F)cc2)cc[nH]1`
14.4 µM

How about `CCOP(=O)(CCn1cc(-c2ccc(-c3nc(-c4ccc(F)cc4)c(-c4cc[nH]c(=O)c4)[nH]3)cc2)nn1)OCC` ?
37.4 µM

Can you handle `CCOP(=O)(CCn1cc(-c2nc(-c3ccc(F)cc3)c(-c3ccncc3)n2C)nn1)OCC` next?
> 100 µM

---

Biological target: Casein kinase I isoform delta (Homo sapiens, UniProt P48730)
Sequence (P48730 whole entry, canonical isoform): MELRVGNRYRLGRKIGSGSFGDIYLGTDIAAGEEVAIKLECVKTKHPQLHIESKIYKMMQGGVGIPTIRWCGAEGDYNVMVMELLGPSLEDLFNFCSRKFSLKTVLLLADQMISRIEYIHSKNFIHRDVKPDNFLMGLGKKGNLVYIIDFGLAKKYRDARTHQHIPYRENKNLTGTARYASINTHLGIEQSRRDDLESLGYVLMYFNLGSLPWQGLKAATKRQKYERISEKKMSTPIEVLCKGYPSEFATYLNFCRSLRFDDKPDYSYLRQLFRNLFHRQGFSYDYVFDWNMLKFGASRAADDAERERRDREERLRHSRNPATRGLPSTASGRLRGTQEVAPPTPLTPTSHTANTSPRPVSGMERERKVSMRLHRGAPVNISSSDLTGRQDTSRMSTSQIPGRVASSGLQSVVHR
Test: Inhibition of CK1-delta (unknown origin) by radiometric assay
pIC50: −log10 of the molar value.
Parameter: pIC50

See these solved cases before continuing.
O=C(O)c1ccc(-c2nc(-c3ccc(F)cc3)c(-c3cc[nH]c(=O)c3)[nH]2)cc1: 4.61
CCOP(=O)(CCn1cc(-c2nc(-c3ccc(F)cc3)c(-c3ccncc3)n2C)nn1)OCC: 5.51

(a) Cn1c(-c2cn(-c3cccc(C(=O)O)c3)nn2)nc(-c2ccc(F)cc2)c1-c1ccncc1
(b) CCOP(=O)(CCn1cc(-c2ccc(-c3nc(-c4ccc(F)cc4)c(-c4cc[nH]c(=O)c4)[nH]3)cc2)nn1)OCC
(c) O=c1cc(-c2[nH]c(-c3ccc(-c4nnn[nH]4)cc3)nc2-c2ccc(F)cc2)cc[nH]1
Reorder: pIC50, max to min. Return value: ordered labels per request.
a, c, b

---

Target: Casein kinase I isoform delta (Homo sapiens)
Assay: Inhibition of CK1-delta (unknown origin) by radiometric assay
Parameter: IC50 (µM)

CCOC(=O)Cn1cc(-c2ccc(-c3nc(-c4ccc(F)cc4)c(-c4cc[nH]c(=O)c4)[nH]3)cc2)nn1: 24.5

(a) O=c1cc(-c2[nH]c(-c3ccc(-c4cn(CCO)nn4)cc3)nc2-c2ccc(F)cc2)cc[nH]1
(b) O=c1cc(-c2[nH]c(-c3ccc(-c4cn(CCP(=O)(O)O)nn4)cc3)nc2-c2ccc(F)cc2)cc[nH]1
(c) Cn1c(-c2cn(CCO)nn2)nc(-c2ccc(F)cc2)c1-c1ccncc1
Rank the 3 compounds: largest IC50 first, smallest last. A ranking is expressed here by listing the labels in the requested order.
a, b, c

---

Molecular target: Casein kinase I isoform delta (Homo sapiens)
Assay: Inhibition of CK1-delta (unknown origin) by radiometric assay
Parameter: IC50 (nM)

Use the examples below as a reference point.
C#Cc1ccc(-c2nc(-c3ccc(F)cc3)c(-c3cc[nH]c(=O)c3)[nH]2)cc1: 19900
CSc1nccc(-c2[nH]c(-c3ccc(O)cc3)nc2-c2ccc(F)cc2)n1: 5960
Oc1ccc(-c2nc(-c3ccncc3)c(-c3ccc(F)cc3)[nH]2)cc1: 188

(I) Cn1c(-c2cn(CCP(=O)(O)O)nn2)nc(-c2ccc(F)cc2)c1-c1ccncc1
(II) Cn1c(-c2cn([C@@H]3[C@@H](O)[C@H](O)[C@@H](CO)O[C@H]3O)nn2)nc(-c2ccc(F)cc2)c1-c1ccncc1
Hi there! Just curious which has the higher IC50 between I and II . Answer by stating the label of the chosen item.
II
(II: 439 nM, I: 225 nM)

---

Biological target: Casein kinase I isoform delta (Homo sapiens)
Assay: Inhibition of CK1-delta (unknown origin) by radiometric assay
Parameter: IC50 (µM)

O=C(O)c1cc(-c2nc(-c3ccc(F)cc3)c(-c3cc[nH]c(=O)c3)[nH]2)ccc1O: 21.2
O=c1cc(-c2[nH]c(-c3ccc(O)cc3)nc2-c2ccc(F)cc2)cc[nH]1: 19.7
C#Cc1ccc(-c2nc(-c3ccc(F)cc3)c(-c3ccnc(SC)n3)[nH]2)cc1: 66.3

(A) Cn1c(-c2cn(-c3ccc(C(=O)O)cc3)nn2)nc(-c2ccc(F)cc2)c1-c1ccncc1
(B) Cn1c(-c2cn([C@H]3CCNC[C@@H]3F)nn2)nc(-c2ccc(F)cc2)c1-c1ccncc1
(C) CCOP(=O)(CCn1cc(-c2ccn3c(-c4ccnc(SC)n4)c(-c4ccc(F)cc4)nc3n2)nn1)OCC
(D) O=c1cc(-c2[nH]c(C3CCNCC3)nc2-c2ccc(F)cc2)cc[nH]1
(E) Cn1c(-c2c[nH]nn2)nc(-c2ccc(F)cc2)c1-c1ccncc1
Provide the items ranked by increasing IC50. Output the labels ranked as instructed.
E, B, A, D, C

---

Target: Mitogen-activated protein kinase 14 (Homo sapiens, UniProt Q16539)
Sequence (Q16539 whole entry): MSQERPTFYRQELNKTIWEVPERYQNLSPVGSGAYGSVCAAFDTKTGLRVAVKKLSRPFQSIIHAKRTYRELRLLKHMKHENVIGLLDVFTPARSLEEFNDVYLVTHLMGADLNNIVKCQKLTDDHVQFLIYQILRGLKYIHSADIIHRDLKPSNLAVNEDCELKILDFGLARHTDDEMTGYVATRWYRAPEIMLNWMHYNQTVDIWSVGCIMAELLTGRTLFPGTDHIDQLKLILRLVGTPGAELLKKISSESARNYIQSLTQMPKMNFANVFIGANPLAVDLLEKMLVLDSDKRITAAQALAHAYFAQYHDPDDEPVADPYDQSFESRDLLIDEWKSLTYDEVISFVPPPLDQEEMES
Assay: Inhibition of p38alpha MAPK (unknown origin) by radiometric assay
pIC50: −log10 of the molar value.
Parameter: pIC50

Cn1c(-c2cn([C@@H]3[C@@H](O)[C@H](O)[C@@H](CO)O[C@H]3O)nn2)nc(-c2ccc(F)cc2)c1-c1ccncc1: 5.99
Cn1c(-c2cn(CCO)nn2)nc(-c2ccc(F)cc2)c1-c1ccncc1: 6.11
O=c1cc(-c2[nH]c(C3CCNCC3)nc2-c2ccc(F)cc2)cc[nH]1: 5.94

---

Each entry below carries its measured IC50, system: Tyrosine-protein kinase JAK2 (Homo sapiens).

// query IC50 value for entry `CCOP(=O)(CCn1cc(-c2nc(-c3ccc(F)cc3)c(-c3ccncc3)n2C)nn1)OCC`
> 100 µM

Lookup `Cn1c(-c2cn([C@@H]3[C@@H](O)[C@H](O)[C@@H](CO)O[C@H]3O)nn2)nc(-c2ccc(F)cc2)c1-c1ccncc1`
> 100 µM

Next compound: `Cn1c(-c2cn(-c3ccc(C(=O)O)cc3)nn2)nc(-c2ccc(F)cc2)c1-c1ccncc1`
> 100 µM
